Each entry below lists one item and its recorded GI50 value.
- Tested on: SF-268
- EXPERIMENT NOTES: NCI tumour cell line growth inhibition, 48 h
Calls of active or inactive are those of the source. No stated cut-off is given here; in the data, active = GI50 up to about 1.1 µM and inactive = higher.

COMPOUND	GI50
CCOC1NC(/N=C/c2ccc(OC)cc2)=C(C#N)C1C#N (configuration not stated)	97.5 µM (inactive)
CC(C)(C)c1nc2c(o1)/C(=N\c1ccc(F)cc1)c1ccccc1C2=O	10.6 µM (inactive)
C/C(=C1/N=C(c2cc([N+](=O)[O-])ccc2Cl)N(c2cccc(C)c2)C1=O)c1cc2ccccc2oc1=O	> 100 µM (inactive)
CCOC(=O)Cc1cc(=O)oc2cc(O)ccc12	> 100 µM (inactive)
N#Cc1cc(N(CCCl)CCCl)c([N+](=O)[O-])cc1[N+](=O)[O-]	> 100 µM (inactive)
O=C1c2c(n(Cc3ccccc3)c(=O)n2Cc2ccccc2)C(=O)N1Cc1ccccc1	64.1 µM (inactive)
C(=N\c1ccc(-c2nc3ccccc3[nH]2)cc1)/c1ccc[nH]1	30.3 µM (inactive)
CCC(C)NC1=C(NC(C)=O)C(=O)c2ccccc2C1=O (configuration not stated)	> 75 µM (inactive)
CCOC(=O)NC(=O)c1cn(CCN2CCN(c3ncnc4[nH]cnc34)CC2)c(=O)[nH]c1=O	> 100 µM (inactive)
O=S(=O)(O)c1ccc2c(/N=N/c3ccc(Sc4ccc(/N=N/c5c(O)ccc6cc(S(=O)(=O)O)ccc56)cc4)cc3)c(O)ccc2c1	> 100 µM (inactive)
CCOC(=O)/C(=C\c1ccc[nH]1)C(=O)c1ccccc1	91 µM (inactive)
C[N+](C)(C)CC1CCC/C1=N\OC(=O)c1ccccc1 (configuration not stated)	> 100 µM (inactive)
CC12Oc3ccc4ccccc4c3C1c1c(ccc3ccccc13)O2 (configuration not stated)	> 100 µM (inactive)
Cc1ccccc1OC(C)C(=O)NN1C(=O)CSC1c1ccc(Cl)cc1 (configuration not stated)	25.4 µM (inactive)
CCOC(=O)/C(=C/c1ccc(C(F)(F)F)cc1)N(CC)CC	72.3 µM (inactive)
CC1=C2C(=O)O[C@@H](c3ccoc3)[C@]2(C)CCC1	> 100 µM (inactive)
CSC1=N/C(=C\c2ccc(C)cc2)C(=O)N1CN1CCCCC1	61.8 µM (inactive)
CCOC(=O)C(Cc1ccc([N+](=O)[O-])cc1)NC(=O)CC1c2ccccc2-c2ccccc21 (configuration not stated)	50.7 µM (inactive)
COC(=O)C(CC(=O)c1cc2c(cc1I)OCO2)Cc1cc(OC)c(OC)c(OC)c1I (configuration not stated)	> 100 µM (inactive)
COc1cc(/C=C2/SC(c3ccccc3)N(c3ccc(NC(C)=O)cc3)C2=O)cc(OC)c1OC (configuration not stated)	75.2 µM (inactive)
CN(C)c1ccc(C(c2ccc(Cl)cc2)c2ccc(N(C)C)cc2)cc1	> 100 µM (inactive)
O=C1Oc2cc(O)cc(/C=C/c3ccc(O)cc3)c2[C@@]12c1c(O)cc(O)cc1OC2c1cccc(O)c1 (some centres not stated)	36.6 µM (inactive)

----------
- Tested on: CCRF-CEM
- EXPERIMENT NOTES: NCI tumour cell line growth inhibition, 48 h
The source made the active and inactive calls. Rule as the data show it: active = GI50 up to about 1.1 µM and inactive = higher.
Labels: active, inactive

MOLECULE	ASSIGNED CATEGORY
CC(O)=NC(Cc1ccc2ccccc2c1)C(O)=NC(Cc1ccc(Cl)cc1)C(O)=NC(Cc1c[nH]c2ccccc12)C(O)=NC(CO)C(O)=NC(Cc1ccc(O)cc1)C(O)=NC(CCCN=C(N)N)C(O)=NC(CC(C)C)C(O)=NC(CCCN=C(N)N)C(=O)N1CCCC1C(O)=NC(C)C(=N)O (centres undefined)	inactive
C(=N\c1ccc(-c2nc3ccccc3[nH]2)cc1)/c1cccs1	inactive
CC1=NN(C(=O)c2ccccc2O)C(=O)/C1=C/c1ccc([N+](=O)[O-])cc1	active
CCc1nnc(CC)n1-n1c(Cc2ccccc2)n[nH]c1=O	inactive

----------
- Test system: NCI-H460
- EXPERIMENT NOTES: NCI tumour cell line growth inhibition, 48 h
Activity calls are given as the source filed them. Cut-off read from the data, not from the text of the source: active = GI50 up to about 1.1 µM and inactive = higher. Where a SMILES comes first, the peptide text is derived from it. [ ]: non-standard residue; d: D form. The star is where a group is joined. ξ: configuration not given here. X4 = COc1ccc(C(N*)c2ccc(OC)cc2)cc1; NMeF = CN[C@@H](Cc1ccccc1)C(=O)O; NMeD = CN[C@@H](CC(=O)O)C(=O)O; NMeV = CN[C@H](C(=O)O)C(C)C; ξNMeV = CNC(C(=O)O)C(C)C; Boc = CC(C)(C)OC(=O)*; ξNMeA = CNC(C)C(=O)O; ξV = CC(C)C(N)C(=O)O
Classes used: yes = active, no = inactive

MOLECULE	ASSIGNED CATEGORY
C=CCc1cc(OC)c2c(c1)C(O)CC(c1ccccc1)O2 (stereo not given)	no
CCOC(=O)c1sc2nc(SC)nc3c2c1NCN3C	no
COC(=O)[C@@H](OC(C)=O)[C@@H](OC(C)=O)c1nnc2ccc(Cl)nn12	no
COC(=O)C(=O)C(C(=O)C(=O)Nc1ccc(C)cc1)c1nc2ccc(C(=O)c3ccccc3)cc2nc1O (stereo not given)	no
O=c1oc2ccc3ccccc3c2cc1-c1nnc(-c2ccc([N+](=O)[O-])cc2)[nH]1	no
O=[N+]([O-])C(=C/c1cccc2ccccc12)/C(=C\c1cccc2ccccc12)[N+](=O)[O-]	no
CC(C)Oc1c(O)c2c3c(oc(=O)n3C=CC2c2ccccc2F)c1OC(C)C (stereo not given)	no
O=C(/C=C/c1ccccc1Cl)c1ccc(Cl)cc1Cl	no
COC(=O)[C@]1(c2ccc(N(C)C)cc2OC)C[C@@H]2CCCN(CCc3c1[nH]c1ccccc31)C2	no
COc1ccc(C(NC(=O)C[C@@H](C(=O)N(C)C(C)C(=O)O)N(C)C(=O)[C@@H]2CCCN2C(=O)[C@H](C(C)C)N(C)C(=O)C(C(C)C)N(C)C(=O)[C@H](Cc2ccccc2)N(C)C(=O)C(NC(=O)OC(C)(C)C)C(C)C)c2ccc(OC)cc2)cc1 (stereo not given in full) (Boc-[ξV][NMeF][ξNMeV][NMeV]P[NMeD](X4)[ξNMeA]-OH)	no
O=S(=O)(O)c1ccc2c(/N=N/c3ccc(Sc4ccc(/N=N/c5c(O)ccc6cc(S(=O)(=O)O)ccc56)cc4)cc3)c(O)ccc2c1	no
CCCCCCCCC/C=C1\CC(CO)(COC(=O)c2ccccc2)OC1=O (stereo not given)	no
C(=N\c1ccc(-c2nc3ccccc3[nH]2)cc1)/c1cccs1	no
Cn1c(=O)oc2cc(C3CCC(=O)N3Cc3ccc(Cl)cc3)ccc21 (stereo not given)	no
O=C(Cn1ccnc1[N+](=O)[O-])N(CCO)CCO	no
CC(C)(C)COC1C2(OCCO2)C2CCC1(C)C2(C)C (stereo not given)	no
CC(C)OCC1CC(CC(=O)Nc2nncs2)C(=O)O1 (stereo not given)	no
CC1(C)O[C@H]2Cn3c(c(C#N)c4ccccc43)[C@H]2O1	no
CSc1c(C#N)c(=O)n(N)c2[nH]nc(C)c12	no
CC(=O)c1ccc(NC(=O)/C(=N\NC(N)=O)C(C#N)CC(C)(C)C=O)cc1 (stereo not given)	no
N=c1nc2n(cc1F)[C@@H]1O[C@H](CO)[C@@H](O)[C@@H]1O2	yes
CC(O)=NC(Cc1ccc2ccccc2c1)C(O)=NC(Cc1ccc(Cl)cc1)C(O)=NC(Cc1c[nH]c2ccccc12)C(O)=NC(CO)C(O)=NC(Cc1ccc(O)cc1)C(O)=NC(CCCN=C(N)N)C(O)=NC(CC(C)C)C(O)=NC(CCCN=C(N)N)C(=O)N1CCCC1C(O)=NC(C)C(=N)O (stereo not given)	no
Cc1cn(Cc2ccccc2CCO)c(=S)[nH]c1=O	no
CCN(CC)C(=O)N[C@@H](CC(C)C)C(=O)NC	no
O=NN(CCF)C(=O)NC1CC2CCC1C2 (stereo not given)	no
O=C(OCCN=C1c2ccccc2CCc2ccccc21)c1ccccc1	no
CC(C)/C(Cl)=N/OC(=O)Nc1ccc(OC(F)(F)F)cc1	no
O=C(CCCCCCCCCCc1ccccc1)c1c(O)cccc1O	no
Cc1cc(C)nc(NS(=O)(=O)c2ccc(Nc3c4ccc(Cl)cc4nc4c(C(=O)Nc5ccc(S(=O)(=O)N=C(N)N)cc5)cccc34)cc2)n1	no
CC(C)C1OC2(C)OC(=N)C1(C#N)C(C#N)(C#N)C2C (stereo not given)	no
O=C1c2ccccc2C2(O)NC(=S)N(c3ccccc3)C12O (stereo not given)	no
O=C1Sc2ccccc2C(=O)N2CCSC12 (stereo not given)	no
OC1c2ccccc2C2(O)C1C(c1ccccc1)C(c1ccccc1)C2(O)c1ccccc1 (stereo not given)	no
COC(=O)[C@]1(C)CCC[C@]2(C)C3CC4OOC3(C=C4C(C)C)CCC21 (stereo not given in full)	no
O=C(O)CCS/C(=C\C(SCCC(=O)O)c1ccc(Cl)cc1)c1ccc(Cl)cc1 (stereo not given)	no
